# assay remarks: Approximate solubility of Compound 1 in various solvents (stepwise solvent addition)
# Format: physicochemical
# condition parameters: aqueous with cosolvent or surfactant or cyclodextrin, thermodynamic from solid; DMSO/NaOH aq 0.1M 1:1 v/v; RT; read-out: Solubility [S, mg/mL]
parameter measured: solubility

Recorded result, Cc1nc(N)c2c(C(N)=O)cn([C@@H]3O[C@H](CO)[C@@H](O)[C@H]3O)c2n1 , solubility: ~20 mg/mL

###

# assay remarks: Exact solubility of Compound 1 Form A in selected solvent systems (1 day suspension, HPLC)
# Type: physicochemical
# condition parameters: aqueous with cosolvent or surfactant or cyclodextrin, thermodynamic from solid, 1-Propanol/NaOH aq 0.01M 1:3 v/v, 60° C.
parameter measured: solubility at 1 day (mg/mL)
The figure you give is taken to be in mg/mL; do not add the unit.

Recorded result, Cc1nc(N)c2c(C(N)=O)cn([C@@H]3O[C@H](CO)[C@@H](O)[C@H]3O)c2n1 [Compound 1] , solubility at 1 day: 25.9
